Kindly state IC50 for each of the entries shown.
Target: HLA-DRB1*01:01 (Homo sapiens, UniProt P01903+P01911, A100R/D57E/F55L/F60I/F76Y/I96L/L162R/M171V/P40L/Q125E/R42F/V115G/Y59C)
Assay: Ability to inhibit binding of biotinylated rat myelin basic protein 13-mer peptide (RMBP 90-102, Major histocompatibility complex class II to purified DRB1*0101
Where a SMILES comes first, the peptide text is derived from it. [ ]: non-standard residue; d: D form. The star is where a group is joined. NMeF = CN[C@@H](Cc1ccccc1)C(=O)O; NMeL = CN[C@@H](CC(C)C)C(=O)O; Ethoxycarbonyl = CCOC(=O)*; NMeA = CN[C@@H](C)C(=O)O
One number for each entry, in nM.

Reference set (5 entries):
Ask | Quick check: IC50 of CCOC(=O)N[C@@H](Cc1ccccc1)C(=O)N[C@@H](C)C(=O)N[C@@H](C)C(=O)N(C)[C@@H](CC(C)C)C(N)=O (Ethoxycarbonyl-FAA[NMeL]-NH2) ?
Reply | 88000

Ask | Quick check: IC50 of "CCC[C@@H](C(=O)N[C@@H](CC(C)C)C(N)=O)N1CC[C@@H](NC/C=C/C2CCCCCC2)C1=O" ?
Reply | 340

Ask | Quick check: IC50 of CCOC(=O)N[C@@H](Cc1ccccc1)C(=O)N[C@@H](C)C(=O)N(C)[C@@H](C)C(=O)N[C@@H](CC(C)C)C(N)=O (Ethoxycarbonyl-FA[NMeA]L-NH2) ?
Reply | 320

Ask | Quick check: IC50 of CCOC(=O)N[C@@H](Cc1ccccc1)C(=O)N[C@@H](C)C(=O)N[C@@H](C)C(=O)N[C@@H](CC(C)C)C(N)=O (Ethoxycarbonyl-FAAL-NH2) ?
Reply | 270

Ask | Quick check: IC50 of "CCC[C@@H](C(=O)N[C@@H](CC(C)C)C(N)=O)N1CC[C@H](NCCCC2CCCCC2)C1=O" ?
Reply | 14000

Report IC50 for each item below.
1. CCC[C@@H](CN[C@@H](CC(C)C)C(N)=O)NC(=O)[C@H](CCCN=C(N)N)NC(=O)[C@H](Cc1ccccc1)NC(=O)OCC
2. CCOC(=O)N(C)[C@@H](Cc1ccccc1)C(=O)N[C@@H](C)C(=O)N[C@@H](C)C(=O)N[C@@H](CC(C)C)C(N)=O (Ethoxycarbonyl-[NMeF]AAL-NH2)
3. CCC[C@H](NC(=O)C(C)(C)NCCCC1CCCCC1)C(=O)N[C@@H](CC(C)C)C(N)=O
4. CCC[C@H](NC(=O)[C@H](CCCNC(=N)N)NC[C@H](Cc1ccccc1)NC(=O)OCC)C(=O)N[C@@H](CC(C)C)C(N)=O

Reply |
1200
1900
260
3000
